Value source: patent US5017596A

Entries and their inhibition in vivo at 160 mg/kg
system: contortions induced by acetylcholine bromide in mice; test: Analgesic activity: inhibition of the contortions induced by acetylcholine bromide in mice (Collier's method); type: in vivo, Swiss male mice; settings: Mus musculus, po; 160 mg/kg, administered orally; acetylcholine bromide 7.2 mg/kg i.p.; mean of the values at 40 and 120 minutes; read-out: % inhibition of contortions
Dear colleague, please return just the value in %, with no unit written.

If you can, please state the reported inhibition in vivo at 160 mg/kg value of COc1cc(C(C)(O)c2nccn2C)cc(OC)c1OC (stereo not shown) [Example 137] .
85

If you can, please state the reported inhibition in vivo at 160 mg/kg value of CN(C)CCOC(C)(c1ccc(Cl)cc1)c1nccn1C (stereo not shown) [Example 2] .
100

If you can, please state the reported inhibition in vivo at 160 mg/kg value of CCCCn1ccnc1C(OCCN(C)C)c1ccc(C(F)(F)F)cc1 (stereo not shown) [Example 14] .
85

If you can, please state the reported inhibition in vivo at 160 mg/kg value of COc1ccc(C(C)(O)c2nccn2C)cc1 (stereo not shown) [Example 133] .
52.5

If you can, please state the reported inhibition in vivo at 160 mg/kg value of CN(C)CCOC(C)(c1cccc(C(F)(F)F)c1)c1nccn1C (stereo not shown) [Example 7] .
95

If you can, please state the reported inhibition in vivo at 160 mg/kg value of CN(C)CCCOC(c1cccc(Cl)c1)c1nccn1C (stereo not shown) [Example 60] .
82.5

If you can, please state the reported inhibition in vivo at 160 mg/kg value of CN(C)CCCOC(C)(c1ccc(F)cc1)c1nccn1C (stereo not shown) [Example 64] .
100

If you can, please state the reported inhibition in vivo at 160 mg/kg value of CCC(OCCCN(C)C)(c1ccc(Cl)cc1)c1nccn1C (stereo not shown) [Example 61] .
97.5

If you can, please state the reported inhibition in vivo at 160 mg/kg value of CN1CCOC(c2ccccc2)c2ccccc2C1 (stereo not shown) [Nefopam, reference compound] .
100

Next:
If you can, please state the reported inhibition in vivo at 160 mg/kg value of Cn1ccnc1C(C)(OCCCN1CCCCC1)c1ccc(C(F)(F)F)cc1 (stereo not shown) [Example 83] .
88.3

---

system: contortions induced by acetylcholine bromide in mice; assay: Analgesic activity: inhibition of the contortions induced by acetylcholine bromide in mice (Collier's method); assay type: in vivo, Swiss male mice; settings: Mus musculus, po; 160 mg/kg, administered orally; acetylcholine bromide 7.2 mg/kg i.p.; mean of the values at 40 and 120 minutes; read-out: % inhibition of contortions
Entries and their inhibition in vivo at 160 mg/kg
Dear colleague, please return just the value in %, with no unit written.

If you can, please state the reported inhibition in vivo at 160 mg/kg value of CN(C)CCCOC(c1ccc(Cl)cc1)c1nccn1C (stereo not drawn) .
100

If you can, please state the reported inhibition in vivo at 160 mg/kg value of COc1ccc(C(OCCCN(C)C)c2nccn2C)cc1 (stereo not drawn) .
100

If you can, please state the reported inhibition in vivo at 160 mg/kg value of CCCCn1ccnc1C(O)(CCCC)c1ccc(Cl)cc1Cl (stereo not drawn) .
88.8

If you can, please state the reported inhibition in vivo at 160 mg/kg value of CN(C)CCCOC(c1ccc(C(F)(F)F)cc1)c1nccn1C (stereo not drawn) .
100

If you can, please state the reported inhibition in vivo at 160 mg/kg value of CCCCC(OCCCN(C)C)(c1cccc(C(F)(F)F)c1)c1nccn1C (stereo not drawn) .
100

Next:
If you can, please state the reported inhibition in vivo at 160 mg/kg value of CN(C)CCOC(c1cccc(Cl)c1)c1nccn1C (stereo not drawn) .
95

---

tested on: contortions induced by acetylcholine bromide in mice; experiment: Analgesic activity: inhibition of the contortions induced by acetylcholine bromide in mice (Collier's method); format: in vivo, Swiss male mice; settings: Mus musculus, po; 160 mg/kg, administered orally; acetylcholine bromide 7.2 mg/kg i.p.; mean of the values at 40 and 120 minutes; read-out: % inhibition of contortions
Assign true (1) whenever inhibition in vivo at 160 mg/kg does not fall below 80%; assign false (0) whenever it does.

Some solved entries appear below for comparison.
Identify whether the reported inhibition in vivo at 160 mg/kg of the following compound is 80% or greater: CN(C)CCOC(C)(c1ccc(F)cc1)c1nccn1C (stereo not drawn)
false (0)

Identify whether the reported inhibition in vivo at 160 mg/kg of the following compound is 80% or greater: Cn1ccnc1C(O)c1cccc(C(F)(F)F)c1 (stereo not drawn)
false (0)

Identify whether the reported inhibition in vivo at 160 mg/kg of the following compound is 80% or greater: Cn1ccnc1C(C)(O)c1cccc(C(F)(F)F)c1 (stereo not drawn)
true (1)

Identify whether the reported inhibition in vivo at 160 mg/kg of the following compound is 80% or greater: Cn1ccnc1C(OCCCN1CCCCC1)c1ccc(Cl)cc1 (stereo not drawn)
true (1)

Next:
Identify whether the reported inhibition in vivo at 160 mg/kg of the following compound is 80% or greater: CCCCC(OCCN(C)C)(c1cccc(Cl)c1)c1nccn1C (stereo not drawn)
true (1)

Identify whether the reported inhibition in vivo at 160 mg/kg of the following compound is 80% or greater: CN(C)CCCOC(c1cccc(C(F)(F)F)c1)c1nccn1C (stereo not drawn)
true (1)

Identify whether the reported inhibition in vivo at 160 mg/kg of the following compound is 80% or greater: CN(C)CCCOC(C)(c1ccc(Cl)cc1)c1nccn1C (stereo not drawn)
true (1)

Identify whether the reported inhibition in vivo at 160 mg/kg of the following compound is 80% or greater: Cn1ccnc1C(C)(O)c1ccccc1Cl (stereo not drawn)
false (0)

---

Entries and their inhibition in vivo at 160 mg/kg
tested on: contortions induced by acetylcholine bromide in mice; test: Analgesic activity: inhibition of the contortions induced by acetylcholine bromide in mice (Collier's method); type: in vivo, Swiss male mice; details: Mus musculus, po; 160 mg/kg, administered orally; acetylcholine bromide 7.2 mg/kg i.p.; mean of the values at 40 and 120 minutes; read-out: % inhibition of contortions
Dear colleague, please return just the value in %, with no unit written.

For the record COc1cc(C(C)(OCCCN(C)C)c2nccn2C)cc(OC)c1OC (stereo not drawn) , what value of inhibition in vivo at 160 mg/kg is listed for contortions induced by acetylcholine bromide in mice?
95

For the record COc1ccc(C(C)(OCCCN(C)C)c2nccn2C)cc1 (stereo not drawn) , what value of inhibition in vivo at 160 mg/kg is listed for contortions induced by acetylcholine bromide in mice?
95

For the record CC(=O)Nc1ccc(O)cc1 [Paracetamol, reference compound] , what value of inhibition in vivo at 160 mg/kg is listed for contortions induced by acetylcholine bromide in mice?
72.5

For the record Cn1ccnc1C(C)(O)c1ccc(Cl)cc1 (stereo not drawn) , what value of inhibition in vivo at 160 mg/kg is listed for contortions induced by acetylcholine bromide in mice?
70

For the record CCCCn1ccnc1C(O)(CCCC)c1cc(OC)c(OC)c(OC)c1 (stereo not drawn) , what value of inhibition in vivo at 160 mg/kg is listed for contortions induced by acetylcholine bromide in mice?
62.5

For the record CCCCC(O)(c1cccc(Cl)c1)c1nccn1C (stereo not drawn) , what value of inhibition in vivo at 160 mg/kg is listed for contortions induced by acetylcholine bromide in mice?
90

For the record CCCCC(O)(c1ccccc1Cl)c1nccn1C (stereo not drawn) , what value of inhibition in vivo at 160 mg/kg is listed for contortions induced by acetylcholine bromide in mice?
70

For the record Cn1ccnc1C(O)c1ccc(Cl)cc1 (stereo not drawn) , what value of inhibition in vivo at 160 mg/kg is listed for contortions induced by acetylcholine bromide in mice?
57.5

---

Entries and their inhibition in vivo at 160 mg/kg
tested on: contortions induced by acetylcholine bromide in mice; experiment: Analgesic activity: inhibition of the contortions induced by acetylcholine bromide in mice (Collier's method); format: in vivo, Swiss male mice; details: Mus musculus, po; 160 mg/kg, administered orally; acetylcholine bromide 7.2 mg/kg i.p.; mean of the values at 40 and 120 minutes; read-out: % inhibition of contortions
Dear colleague, please return just the value in %, with no unit written.

Sample answers from the record:
If you can, please state the reported inhibition in vivo at 160 mg/kg value of Cn1ccnc1C(O)c1ccc(C(F)(F)F)cc1 (stereo not shown) .
87.5

If you can, please state the reported inhibition in vivo at 160 mg/kg value of CCCCn1ccnc1C(O)c1cc(OC)c(OC)c(OC)c1 (stereo not shown) .
60

If you can, please state the reported inhibition in vivo at 160 mg/kg value of CCCCC(O)(c1cccc(C(F)(F)F)c1)c1nccn1C (stereo not shown) .
55

If you can, please state the reported inhibition in vivo at 160 mg/kg value of CN(C)CCOC(C)(c1ccccc1Cl)c1nccn1C (stereo not shown) .
100

If you can, please state the reported inhibition in vivo at 160 mg/kg value of CN(C)CCOC(C)(c1cccc(Cl)c1)c1nccn1C (stereo not shown) .
95

If you can, please state the reported inhibition in vivo at 160 mg/kg value of CCCCn1ccnc1C(C)(OCCCN(C)C)c1ccc(Cl)cc1 (stereo not shown) .
100

We now examine a further compound.
If you can, please state the reported inhibition in vivo at 160 mg/kg value of CN(C)CCCOC(C)(c1ccc(C(F)(F)F)cc1)c1nccn1C (stereo not shown) .
100
